Values were extracted from PubChem BioAssay (NCI).

test: NCI Yeast Anticancer Drug Screen. Data for the wt1 strain (AID 149);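 further: 0% = growth of vehicle-treated wt1 cultures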; conditions: S. cerevisiae wt1 strain (SPY 50644) growth inhibition; at 11.0 µM
About 79,000 compounds went through this panel and 15% of them were active in at least one assay; those are over-represented in the sample as a whole. Activity calls are given as the source filed them. No stated cut-off is given here; in the data, active means growth inhibition above about 70%; inactive means the rest.
Possible outcomes: true (1) for active, false (0) for inactive

COc1cccc(/C=C2\S/C(=N/Nc3nc(-c4ccc([N+](=O)[O-])cc4)cs3)NC2=O)c1O
false (0)
O=C1CC(C(O)(C(F)(F)F)C(F)(F)Cl)CCC1C(O)(C(F)(F)F)C(F)(F)Cl (stereo unspecified)
false (0)
CS(=O)(=O)O.[Ag]
true (1)
C[N+](C)([O-])CCCNc1c2ccccc2nc2cccc([N+](=O)[O-])c12
false (0)
O=C(O)CNC(c1ccccc1)(c1ccccc1)c1ccccc1
false (0)
O=C(Cc1ccccc1)NNc1nc(NNC(=O)c2ccncc2)nc(Nc2ccc(Cl)cc2)n1
false (0)
Cc1ccc(S(=O)(=O)N/N=C/C(Br)=C(/Br)C(=O)O)cc1
false (0)
Cc1cc(O)c(C(C)C)cc1SC#N
false (0)
S=C(NCc1ccccn1)N/N=C/c1ccccn1
true (1)
NC(=S)N/N=C1\c2ccccc2CCC1CCC1(O)CCc2ccccc2C1=O (stereo unspecified)
false (0)
OB(O)c1ccccc1C#Cc1ccccc1
false (0)

###

experiment: NCI Yeast Anticancer Drug Screen. Data for the mgt1 strain (AID 153); settings: S. cerevisiae mgt1 mutant growth inhibition; at 3.7 µM
Compounds without any hit were thinned out: in the full panel of roughly 79,000, 15% have a hit. Calls of active or inactive are those of the source. Cut-off read from the data, not from the text of the source: active = growth inhibition above about 70%; inactive = the rest.
Possible outcomes: active, inactive

O=C(NO)c1coc2ccccc2c1=O
inactive
Clc1ccc(/C(=C\c2ccccc2)Cn2ccnc2)cc1
inactive
CC1(C2CC2)C(C#N)(C#N)C1(C#N)C#N
inactive
CN(C)N=Nc1ccc(N(C)C)cc1
inactive
N#CCCC1C(C#N)C2(Cl)CC1(Cl)C(Cl)=C2Cl (stereo not drawn)
inactive
CN(C)CCNCCCNc1c2ccccc2nc2cccc([N+](=O)[O-])c12
inactive
CC1CCN(CCC(=O)c2ccc([N+](=O)[O-])cc2)CC1
inactive
O/N=c1/ccn(O)c2ccccc12
inactive
O=CC1(F)CC1(c1ccccc1)c1ccccc1 (stereo not drawn)
inactive
CC(=O)/C=C/c1cccc([N+](=O)[O-])c1
inactive
O=c1[nH]c2c([N+](=O)[O-])cccc2c2ccccc12
inactive
Cc1cc(C)c(S(=O)(=O)c2ccc(Cl)cc2)c(C)c1
inactive
O=C(c1ccccc1)[C@H]1Nc2ccc(Cl)cc2[C@H]2OCCC[C@@H]12
inactive
O=S(=O)(NC1CCCC(c2ccccc2)C1)c1ccccc1 (stereo not drawn)
inactive
O=C(O)c1cc2c(cc1S(=O)(=O)O)C1C(C3C2C2(Cl)C(Cl)=C(Cl)C3(Cl)C2(Cl)Cl)C2(Cl)C(Cl)=C(Cl)C1(Cl)C2(Cl)Cl (stereo not drawn)
inactive
CCCN=Cc1cc(Cc2ccc(O)c(C=NCCC)c2)ccc1O
active
CCCCCCC=C(C(=O)OCC)C(=O)OCC
inactive
CC(C)=CCC/C(C)=C/CN1C(=O)C=CC1=O
inactive
COc1ccc2nc3cccc([N+](=O)[O-])c3c(NCCNCCN(C)C)c2c1
inactive
CCCCS(=O)(=O)Nc1ccc(Nc2c3ccccc3nc3ccccc23)c(OC)c1
inactive
O=[N+]([O-])[O][Sn]([O][Sn]([O][N+](=O)[O-])([c]1ccccc1)[c]1ccccc1)([c]1ccccc1)[c]1ccccc1
inactive
CC(C)(N=Nc1ccc(Cl)cc1)[N+](=O)[O-]
inactive
CC1=COC2=C(C)C(=O)C(=O)c3c(C)ccc1c32
inactive

###

assay: NCI Yeast Anticancer Drug Screen. Data for the mgt1 strain (AID 153); details: S. cerevisiae mgt1 mutant growth inhibition; at 100.0 µM; active compounds read high
This is part of a sample that, as a whole, favours compounds with a hit. Of some 79,000 tested, about 15% had one in any assay.
This listing pairs molecules with measured growth inhibition.
Measured property: growth inhibition (%)

Cc1cccc(/C=N/NC(=S)NC2CCCCC2)n1
21
O=C1C=C(NCCc2cc(Br)c(O)c(Br)c2)C(=O)c2ncccc21
94
O=C(O)c1ccccc1C(=O)OC1CCc2ccccc2C1 (centres undefined)
5
O=S(=O)(c1ccccc1)N1CN2CN(C1)CN(S(=O)(=O)c1ccccc1)C2
6
CN1C(=O)C(CC(=O)O)NC1=S (centres undefined)
27
O=[N+]([O-])c1ccc2nc(=S)[nH]n2c1
1
CCCCCCCCCCCNC=O
98
O=CC1(F)CC1(c1ccccc1)c1ccccc1 (centres undefined)
87
COc1ccc2c3c1OC(C)C31CC(=O)CCC1CC2 (centres undefined)
-1
Nc1cc2ccccc2cc1N
-18
O=C(Nc1ccc(Cl)cc1)c1cc2cc(N=Nc3ccccc3Cl)ccc2oc1=O
95
CC(=O)/C(=C\c1ccc(Cl)c(Cl)c1)C(=O)C(C)CN(C)C (centres undefined)
93
CC(=O)/C=C/c1cc([N+](=O)[O-])ccc1O
97
CCOC(=S)SSSC(=S)OCC
56
N#C/C(=C\NC(=S)Nc1ccc(S(N)(=O)=O)cc1)C(=O)c1ccc2ccccc2c1
0
CCCCCCCSCC1C(=O)C23C(O)C1CCC2C12COC3(O)C(O)C1C(C)(C)CCC2O (centres undefined)
89
CC1CN(/N=C\c2ccc([N+](=O)[O-])o2)C(=O)O1 (centres undefined)
9
CCO/C=C1\SC(=S)N(c2ccc(OCC)cc2)C1=O
45
CC/C(=C(\c1ccccc1)c1ccc(OCC[N+](C)(C)C)cc1)c1ccccc1
99
CCC(C)COC(=O)Nc1cccc(Cl)c1 (centres undefined)
99
CC1(C)OC(=O)C(=Cc2ccc([N+](=O)[O-])s2)C(=O)O1
50
CCCN=Cc1cc(Cc2ccc(O)c(C=NCCC)c2)ccc1O
97
COc1cc2c(cc1OC)[C@@H](Nc1ccc(C#N)cc1)C1COC(=O)[C@@H]1C2c1cc(OC)c(O)c(OC)c1 (some centres undefined)
83
NC(CS)C(=O)NCCNc1ccc(NCCNC(=O)C(N)CS)c2c1C(=O)c1c(O)ccc(O)c1C2=O (centres undefined)
62

###

A collection of compounds and their measured growth inhibition
test: NCI Yeast Anticancer Drug Screen. Data for the mlh1 strain (AID 171);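 further: 0% = growth of vehicle-treated control cultures of the same strain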; conditions: S. cerevisiae mlh1 strain growth inhibition; at 3.7 µM; active compounds read high
About 79,000 compounds went through this panel and 15% of them were active in at least one assay; those are over-represented in the sample as a whole.
Measured property: growth inhibition (%)

NC(=S)N1N=C2c3ccccc3CC[C@@H]2[C@@H]1c1ccccc1
-25
[N-]=[N+]=NC1(c2ccccc2)C(=O)Nc2ccccc2C1=O (stereo unspecified)
-5
O=NC1c2cccc3cccc(c23)C1N=O (stereo unspecified)
13
NNc1ccccc1-c1nc2ccccc2[nH]1
-3
CC(CN(C)C)C(=O)/C=C/c1ccc(Cl)c(Cl)c1 (stereo unspecified)
6
CCN(CC)CCNc1ccc2nc(C)n3c4ccc(O)cc4c(=O)c1c23
3
O=c1c2ccccc2nc(-c2ccc(Cl)cc2)n1O
90
CCC(C)(C)c1ccc(Oc2ccccc2)c(N)c1
-18
Cc1ccc(S(=O)(=O)Nc2cccc3cccnc23)cc1
3
COC1=CCC23C(=O)C=CC(=O)C2(C1)C(=O)c1ccccc1C3=O (stereo unspecified)
-25
C[n+]1c(-c2ccc(/C=N/NC(=O)c3ccc(C(=O)N/N=C/c4ccc(-c5cn6ccccc6[n+]5C)cc4)cc3)cc2)cn2ccccc21
11

###

test: NCI Yeast Anticancer Drug Screen. Data for the rad50 strain (AID 155);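 further: 0% = growth of vehicle-only cultures of the same strain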; settings: S. cerevisiae rad50 strain growth inhibition; at 5.0 µM (retest, dose inferred, filed as 0.5); active compounds read high
The panel holds about 79,000 compounds, 15% with a hit somewhere; the sample as a whole holds those more often.
Listing: growth inhibition of selected compounds
Measured property: growth inhibition (%)

OC1(C#CI)CCCCC1
67
CCS(=O)(=O)Nc1ccc(Nc2c3ccccc3nc3ccccc23)c(OC)c1
86
CC(C)(N=Nc1ccc(Cl)cc1)[N+](=O)[O-]
47
CC(C)=CCc1c2c(c(O)c3c(=O)c(-c4ccc(O)c(O)c4)coc13)C=CC(C)(C)O2
-3
O=C(CCCN1CCC(Nc2ccc(F)cc2)(c2nnnn2C2CCCCC2)CC1)c1ccc(F)cc1
1
N#[N+]c1c([O-])c2ccccc2c2ccccc12
-23
CCCCCCCSCC1C(=O)C23C(O)C1CCC2C12COC3(O)C(O)C1C(C)(C)CCC2O (centres undefined)
-12
COC(=O)C(=O)CC(=O)c1cccc(OC)c1
-150
Cc1cccc2c(Cl)c3cccc(C)c3nc12
13

###

experiment: NCI Yeast Anticancer Drug Screen. Data for the sgs1 strain (AID 173);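 further: 0% = growth of vehicle-only control cultures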; conditions: S. cerevisiae sgs1 mutant, at 3.7 µM
This is part of a sample that, as a whole, favours compounds with a hit. Of some 79,000 tested, about 15% had one in any assay. The source made the active and inactive calls. No stated cut-off is given here; in the data, active means growth inhibition above about 70%; inactive means the rest.
Outcome codes: active, inactive

COc1ccc2nc3cccc([N+](=O)[O-])c3c(NCCCCCC(=O)O)c2c1
active
CCC(/C=C/c1ccccc1)=N\Nc1ccc(Cl)c(Cl)c1
inactive
BrC1C2CCC3OC3C12 (stereo not drawn)
inactive
CS(=O)(=O)O.[Ag]
active
O=C(O)CNC(c1ccccc1)(c1ccccc1)c1ccccc1
inactive
NCCCSc1ccccc1
inactive
C/C(=N/NC(=S)Nc1ccccc1C)c1ccccn1
inactive
CCC(C)COC(=O)Nc1cccc(Cl)c1 (stereo not drawn)
inactive
CC(CC/C(=N/O)c1ccccc1)(CC/C(=N\O)c1ccccc1)[N+](=O)[O-] (stereo not drawn)
inactive
CCS(=O)(=O)Nc1ccc(Nc2c3ccccc3nc3ccccc23)c(OC)c1
inactive
CCCCCCNCCCNc1c2ccccc2nc2cccc([N+](=O)[O-])c12
active
O=C(/N=N/C(=O)Oc1ccccc1)Oc1ccccc1
inactive
CCOc1ccc(N)c(S)c1
inactive
